# Test details: Ratio of AUC in bile to plasma withdrawn from hepatic vein in castrated pig at 0.8 mg/kg administered as intrajejunal dose 20 mins after ketoconazole administration by UPLC-tandem mass spectrometry
# Type: ADME, organism-based, Sus scrofa
# Design: dose 0.8 mg/kg
# Measurement context: male, read-out: Ratio AUC
Value kind: Kp at 20 min
// return just the number, without any unit appended

Please report the recorded Kp at 20 min for CC(C)(C)NC(=O)[C@H]1CC[C@H]2[C@@H]3CC[C@H]4NC(=O)C=C[C@]4(C)[C@H]3CC[C@]12C [FINASTERIDE] .
6

---

# Test details: AUC (0 to 6 hrs) in castrated pig plasma withdrawn from portal vein at 0.2 mg/kg, iv by UPLC-tandem mass spectrometry
# Format: ADME, organism-based, Sus scrofa
# Set-up: time < 6 hr, dose 0.2 mg/kg, route intravenous
# Measurement context: male
Value kind: AUC(0-t) at 6 h (µM·h)
Please give a number only; it is taken to be in µM·h.

Please report the recorded AUC(0-t) at 6 h for CC(C)(C)NC(=O)[C@H]1CC[C@H]2[C@@H]3CC[C@H]4NC(=O)C=C[C@]4(C)[C@H]3CC[C@]12C [FINASTERIDE] .
1.2

Data provenance is ChEMBL document CHEMBL3525971.
